Each record here notes measured inhibition at 330 µM.
target: Aβ1-42 peptide (Homo sapiens); assay: Thioflavin T spectrofluorescence assay (ThT-assay): inhibition of Aβ1-42 aggregation (% inhibition at 330 μM; IC50 from dilution series); conditions: 24 h, read-out: Inhibition at 330 μM [%], ThT assay; 330 μM small molecule, 33 μM Aβ1-42 (10:1), 24 hrs at 37° C.; mean ± standard deviation of two independent experiments
Sequence (P05067 672-713 limits assumed): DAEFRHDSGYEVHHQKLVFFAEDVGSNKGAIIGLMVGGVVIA
Express it in %; write the number only.

Here's what some known entries look like.
Task: Retrieve inhibition at 330 µM measured for CC(C)OC1CCc2c(c3ccc(Nc4ccc5c(c4)OCCO5)nc3n2C)C1 (stereo not drawn) [Example 203] and print it.
Result: 93.4

Task: Tell me measured inhibition at 330 µM for Cn1c2c(c3ccc(Nc4ccc5c(c4)OCCO5)cc31)CN(CCCCS(C)(=O)=O)CC2 [Example 207] please.
Result: 75.6

Task: Return reported inhibition at 330 µM. Input compound: CN1CCC(c2c[nH]c3cc(Nc4cccc(N5CCOCC5)c4)ccc23)CC1 [Example 20]
Result: 92.8

Task: Return inhibition at 330 µM (reported value) for this compound: c1cc2ccc(Nc3ccc4cc[nH]c4n3)nc2[nH]1 [Example 8]
Result: 74.7

Task: Input COc1ccc(Nc2ccc3c(C4CCNCC4)cn(C)c3n2)cc1F [Example 103] , output reported inhibition at 330 µM.
Result: 93.2

Let us examine a further case.
Task: Supply measured inhibition at 330 µM of CNC1CCc2[nH]c3cc(Nc4ccc5c(c4)OCCO5)ccc3c2C1 (stereo not drawn) [Example 132] in your reply.
Result: 99.4
